Where do the numbers come from? From patent US10273267B2.

Each entry below carries its recorded IC50.
- measurement_target: porcine pancreatic elastase (Sus scrofa)
- Sequence (P00772 27-266): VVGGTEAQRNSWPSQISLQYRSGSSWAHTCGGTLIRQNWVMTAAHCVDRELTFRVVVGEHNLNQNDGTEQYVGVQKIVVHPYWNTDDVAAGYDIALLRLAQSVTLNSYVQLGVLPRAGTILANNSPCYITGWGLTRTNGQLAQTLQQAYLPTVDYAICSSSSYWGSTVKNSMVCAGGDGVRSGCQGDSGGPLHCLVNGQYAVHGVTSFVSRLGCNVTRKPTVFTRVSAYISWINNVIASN
*1 amine or outer side, *2 acyl side, *3 side chain or, on linkers, in order; H or OH if unused. Where a SMILES comes first, the peptide text is derived from it. [ ]: non-standard residue; d: D form. X2 = C[C@@H](O)[C@@H](CCC(=O)[*:2])N[*:1]; Gly(octyl) = CCCCCCCC[C@H](N)C(=O)O; hSer = N[C@@H](CCO)C(=O)O
Note: unit µM is implicit; provide only the numeric part.

Query string: Enter reported IC50 observed with porcine pancreatic elastase (Sus scrofa) for CCCCCCCC[C@@H]1NC(=O)[C@@H]2CCCN2C(=O)[C@H]2CCCN2C(=O)[C@H](CCO)NC(=O)[C@H](CCCCN)NC(=O)[C@H](CCC(N)=O)NC(=O)[C@@H]2CCCN2C(=O)[C@@H]2CCCN2C(=O)[C@H]([C@@H](C)CC)NC(=O)[C@H](CO)NC(=O)[C@H](C)NC(=O)[C@H]([C@@H](C)O)NC(=O)[C@H](CCC(=O)O)NC1=O [Example 4] (cyclo([Gly(octyl)]ETASIPPQK[hSer][dP]P))
Result string: 1.35

Please turn your attention to the following entry.
Query string: Enter reported IC50 observed with porcine pancreatic elastase (Sus scrofa) for CCCCCCCC[C@@H]1NC(=O)[C@@H]2CCCN2C(=O)[C@H]2CCCN2C(=O)CC[C@H]([C@@H](C)O)NC(=O)[C@H](CCCCN)NC(=O)[C@H](CCC(N)=O)NC(=O)[C@@H]2CCCN2C(=O)[C@@H]2CCCN2C(=O)[C@H]([C@@H](C)CC)NC(=O)[C@H](CO)NC(=O)[C@H](C)NC(=O)[C@H]([C@@H](C)O)NC(=O)[C@H](CCC(=O)O)NC1=O [Example 11] (cyclo([Gly(octyl)]ETASIPPQK[X2][dP]P))
Result string: 48.5

---

Each entry below carries its recorded hNE/hPr3 selectivity.
- measurement_target: human proteinase 3 (Homo sapiens, UniProt P24158)
- Construct: purchased Elastin Products Company, USA
- Sequence (P24158 28-248): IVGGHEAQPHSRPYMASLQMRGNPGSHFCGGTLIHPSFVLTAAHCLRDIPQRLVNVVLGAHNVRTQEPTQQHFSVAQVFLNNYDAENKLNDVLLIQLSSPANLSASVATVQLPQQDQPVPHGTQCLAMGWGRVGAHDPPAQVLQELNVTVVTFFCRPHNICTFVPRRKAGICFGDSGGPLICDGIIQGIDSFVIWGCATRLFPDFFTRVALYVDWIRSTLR
- measurement_protocol: Inhibition of human proteinase 3 (substrate Boc-Ala-Ala-Nva-SBzl)
- Assay type: biochemical
- applied_conditions: ratio of hPr3 IC50 to hNE IC50
Where a SMILES comes first, the peptide text is derived from it. [ ]: non-standard residue; d: D form. Oic = O=C(O)[C@@H]1C[C@@H]2CCCC[C@@H]2N1; Gly(octyl) = CCCCCCCC[C@H](N)C(=O)O; hTyr = N[C@@H](CCc1ccc(O)cc1)C(=O)O; β3hQ = NC(=O)CC[C@H](N)CC(=O)O

Here's what some known entries look like.
Query string: // returns reported hNE/hPr3 selectivity for input CCCCCCCC[C@@H]1NC(=O)[C@H]2CCCN2C(=O)[C@H]2CCCN2C(=O)[C@H]([C@@H](C)O)NC(=O)[C@H](CCCCN)NC(=O)[C@H](CCC(N)=O)NC(=O)[C@@H]2CCCN2C(=O)[C@@H]2CCCN2C(=O)[C@H]([C@@H](C)CC)NC(=O)[C@H](CO)NC(=O)[C@H](C)NC(=O)[C@H]([C@@H](C)O)NC(=O)[C@H](CCC(=O)O)NC1=O [Example 12] (cyclo([Gly(octyl)]ETASIPPQKT[dP][dP]))
Result string: >6579

Query string: // returns reported hNE/hPr3 selectivity for input CC[C@H](C)[C@@H]1NC(=O)[C@H](CO)NC(=O)[C@H](C)NC(=O)[C@H]([C@@H](C)O)NC(=O)[C@H](CCc2ccc(O)cc2)NC(=O)[C@H](CCCNC(=N)N)NC(=O)[C@@H]2CCCN2C(=O)[C@H]2CCCN2C(=O)[C@H]([C@@H](C)O)NC(=O)[C@H](CCCCN)NC(=O)[C@H](CCC(N)=O)NC(=O)[C@@H]2C[C@@H]3CCCC[C@@H]3N2C(=O)[C@@H]2CCCN2C1=O [Example 42] (cyclo(R[hTyr]TASIP[Oic]QKT[dP]P))
Result string: >20833

Please turn your attention to the following entry.
Query string: // returns reported hNE/hPr3 selectivity for input CCCCCCCC[C@@H]1NC(=O)[C@@H]2CCCN2C(=O)[C@H]2CCCN2C(=O)[C@H]([C@@H](C)O)NC(=O)[C@H](CCCCN)NC(=O)C[C@H](CCC(N)=O)NC(=O)[C@@H]2CCCN2C(=O)[C@@H]2CCCN2C(=O)[C@H]([C@@H](C)CC)NC(=O)[C@H](CO)NC(=O)[C@H](C)NC(=O)[C@H]([C@@H](C)O)NC(=O)[C@H](CCC(=O)O)NC1=O [Example 36] (cyclo([Gly(octyl)]ETASIPP[β3hQ]KT[dP]P))
Result string: 364

---

Observed IC50 values for porcine pancreatic elastase (Sus scrofa, UniProt P00772) are listed in what follows.
Where a SMILES comes first, the peptide text is derived from it. [ ]: non-standard residue; d: D form. Gly(octyl) = CCCCCCCC[C@H](N)C(=O)O; aThr = C[C@H](O)[C@H](N)C(=O)O; AllylGly = C=CC[C@H](N)C(=O)O

Here's what some known entries look like.
Query string: // returns reported IC50 for input CCCCCCCC[C@@H]1NC(=O)[C@@H]2CCCN2C(=O)[C@H]2CCCN2C(=O)[C@H]([C@H](C)O)NC(=O)[C@H](CCCCN)NC(=O)[C@H](CCC(N)=O)NC(=O)[C@@H]2CCCN2C(=O)[C@@H]2CCCN2C(=O)[C@H]([C@@H](C)CC)NC(=O)[C@H](CO)NC(=O)[C@H](C)NC(=O)[C@H]([C@@H](C)O)NC(=O)[C@H](CCC(=O)O)NC1=O [Example 3] (cyclo([Gly(octyl)]ETASIPPQK[aThr][dP]P))
Result string: 1.42 µM

Query string: // returns reported IC50 for input CCCCCCCC[C@@H]1NC(=O)[C@H](CCCCN)NC(=O)[C@@H](Cc2ccc(O)cc2)NC(=O)[C@H]([C@@H](C)O)NC(=O)[C@H](CCCCN)NC(=O)[C@H](CCC(N)=O)NC(=O)[C@@H]2CCCN2C(=O)[C@@H]2CCCN2C(=O)[C@H]([C@@H](C)CC)NC(=O)[C@H](CO)NC(=O)[C@H](C)NC(=O)[C@H]([C@@H](C)O)NC(=O)[C@H](CCC(=O)O)NC1=O [Example 25] (cyclo([Gly(octyl)]ETASIPPQKT[dY]K))
Result string: 45 µM

Next:
Query string: // returns reported IC50 for input C=CC[C@@H]1NC(=O)[C@H]([C@@H](C)O)NC(=O)[C@H](CCC(=O)O)NC(=O)[C@H](CCC(=O)N[C@@H](Cc2ccccc2)C(=O)O)NC(=O)[C@@H]2CCCN2C(=O)[C@H]2CCCN2C(=O)[C@H]([C@@H](C)O)NC(=O)[C@H](CCCCN)NC(=O)[C@H](CCC(N)=O)NC(=O)[C@@H]2CCCN2C(=O)[C@@H]2CCCN2C(=O)[C@H]([C@@H](C)CC)NC(=O)[C@H](CO)NC1=O [Example 19] (cyclo(E(Phe)ET[AllylGly]SIPPQKT[dP]P))
Result string: > 100 µM

---

- measurement_target: porcine pancreatic elastase (Sus scrofa)
- Construct: purchased Sigma, USA
- measurement_protocol: Inhibition of porcine pancreatic elastase (hydrolysis of MeOSuc-AAA-pNA)
- Format: biochemical
- applied_conditions: ratio of PPE IC50 to hNE IC50
Where a SMILES comes first, the peptide text is derived from it. [ ]: non-standard residue; d: D form. Gly(octyl) = CCCCCCCC[C@H](N)C(=O)O; Pip = O=C(O)[C@@H]1CCCCN1
property_name: hNE/PPE selectivity
The answer should be written as a number, with no unit following it.

Here's what some known entries look like.
Query string: // returns reported hNE/PPE selectivity for input CCCCCCCC[C@@H]1NC(=O)[C@@H]2CCCN2C(=O)[C@H]2CCCN2C(=O)[C@H]([C@@H](C)O)NC(=O)[C@H](CCCCN)NC(=O)[C@H](CCC(N)=O)NC(=O)[C@@H]2CCCCN2C(=O)[C@@H]2CCCN2C(=O)[C@H]([C@@H](C)CC)NC(=O)[C@H](CO)NC(=O)[C@H](C)NC(=O)[C@H]([C@@H](C)O)NC(=O)[C@H](CCC(=O)O)NC1=O [Example 45] (cyclo([Gly(octyl)]ETASIP[Pip]QKT[dP]P))
Result string: 324

Query string: // returns reported hNE/PPE selectivity for input CCCCCCCC[C@@H]1NC(=O)[C@H](CCCCN)NC(=O)[C@@H](C(C)C)NC(=O)[C@H]([C@@H](C)O)NC(=O)[C@H](CCCCN)NC(=O)[C@H](CCC(N)=O)NC(=O)[C@@H]2CCCN2C(=O)[C@@H]2CCCN2C(=O)[C@H]([C@@H](C)CC)NC(=O)[C@H](CO)NC(=O)[C@H](C)NC(=O)[C@H]([C@@H](C)O)NC(=O)[C@H](CCC(=O)O)NC1=O [Example 22] (cyclo([Gly(octyl)]ETASIPPQKT[dV]K))
Result string: 4847

Query string: // returns reported hNE/PPE selectivity for input CCCCCCCC[C@@H]1NC(=O)[C@H](C(C)C)NC(=O)[C@@H](CO)NC(=O)[C@H]([C@@H](C)O)NC(=O)[C@H](CCCCN)NC(=O)[C@H](CCC(N)=O)NC(=O)[C@@H]2CCCN2C(=O)[C@@H]2CCCN2C(=O)[C@H]([C@@H](C)CC)NC(=O)[C@H](CO)NC(=O)[C@H](C)NC(=O)[C@H]([C@@H](C)O)NC(=O)[C@H](CCC(=O)O)NC1=O [Example 30] (cyclo([Gly(octyl)]ETASIPPQKT[dS]V))
Result string: 4267

Query string: // returns reported hNE/PPE selectivity for input CCCCCCCC[C@@H]1NC(=O)[C@H](Cc2ccc(O)cc2)NC(=O)[C@@H](CCCCN)NC(=O)[C@H]([C@@H](C)O)NC(=O)[C@H](CCCCN)NC(=O)[C@H](CCC(N)=O)NC(=O)[C@@H]2CCCN2C(=O)[C@@H]2CCCN2C(=O)[C@H]([C@@H](C)CC)NC(=O)[C@H](CO)NC(=O)[C@H](C)NC(=O)[C@H]([C@@H](C)O)NC(=O)[C@H](CCC(=O)O)NC1=O [Example 27] (cyclo([Gly(octyl)]ETASIPPQKT[dK]Y))
Result string: 4366

Next:
Query string: // returns reported hNE/PPE selectivity for input CCCCCCCC[C@@H]1NC(=O)[C@H](Cc2ccc(O)cc2)NC(=O)[C@@H](Cc2ccc(O)cc2)NC(=O)[C@H]([C@@H](C)O)NC(=O)[C@H](CCCCN)NC(=O)[C@H](CCC(N)=O)NC(=O)[C@@H]2CCCN2C(=O)[C@@H]2CCCN2C(=O)[C@H]([C@@H](C)CC)NC(=O)[C@H](CO)NC(=O)[C@H](C)NC(=O)[C@H]([C@@H](C)O)NC(=O)[C@H](CCC(=O)O)NC1=O [Example 24] (cyclo([Gly(octyl)]ETASIPPQKT[dY]Y))
Result string: 1112
